Tested on: Staphylococcus epidermidis
Assay: Antibacterial activity against Staphylococcus epidermidis by agar well diffusion method
Assay type: functional
Details: Staphylococcus epidermidis
PARAMETER: log10 MIC (log10 of the value in µg/mL)
On a log10 scale: recorded MIC, unit µg/mL.

>>> print(df.to_string())
                                smiles_data  measured_number
0          O=C(N/N=C/c1ccccc1O)c1ccc(Cl)cc1             1.53
1  O=C(N/N=C/c1ccc(O)cc1)c1ccccc1C(=O)c1ccccc1             1.92
2      COc1cc(/C=N/NC(=O)c2ccc(Cl)cc2)ccc1O             2.00
3  CC1(C)S[C@@H]2[C@H](NC(=O)[C@H](N)c3ccc(O)cc3)C(=O)N2[C@H]1C(=O)O             2.00
4  O=C(N/N=C/c1ccc(Cl)cc1)c1ccccc1C(=O)c1ccccc1             1.70

Kindly note the recorded log10 MIC for O=C(N/N=C/c1c(O)ccc2ccccc12)c1ccc(Cl)cc1 , which is 2.00

response.value for O=C(N/N=C/c1ccc([N+](=O)[O-])cc1)c1ccc(Cl)cc1 (field: log10 MIC) = 2.00

Record summary for O=C(N/N=C/c1ccccc1)c1ccccc1C(=O)c1ccccc1 : reported log10 MIC = 1.70

Query COc1cc(/C=N/NC(=O)c2ccccc2C(=O)c2ccccc2)ccc1O yields log10 MIC of 2.30

The reported value for C=CC1=C(C(=O)O)N2C(=O)[C@@H](NC(=O)/C(=N\OCC(=O)O)c3csc(N)n3)[C@H]2SC1 in terms of log10 MIC is 2.60

// log10 MIC lookup, compound = O=C(N/N=C/c1ccc([N+](=O)[O-])cc1)c1ccccc1C(=O)c1ccccc1 , result: 1.48

Kindly note the recorded log10 MIC for Cc1ccc(/C=N/NC(=O)c2ccccc2C(=O)c2ccccc2)cc1 , which is 2.30

// log10 MIC lookup, compound = Cc1ccc(/C=N/NC(=O)c2ccc(Cl)cc2)cc1 , result: 2.30

Values compiled from ChEMBL document CHEMBL3045220.
